- system: C-reactive protein (CRP) (human)
- Sequence: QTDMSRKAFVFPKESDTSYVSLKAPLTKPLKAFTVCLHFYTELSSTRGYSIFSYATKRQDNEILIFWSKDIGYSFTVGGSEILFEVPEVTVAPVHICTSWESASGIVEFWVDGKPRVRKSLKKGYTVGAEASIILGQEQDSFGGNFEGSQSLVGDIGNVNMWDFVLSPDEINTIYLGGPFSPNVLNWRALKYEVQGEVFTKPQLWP
- test.description: SPR
- test.settings: Ugu; SPR (ProteON XPR36) at 25 C in SB: 40 mM HEPES pH 7.5, 125 mM NaCl, 5 mM KCl, 1 mM MgCl2, 0.01% Tween 20; aptamer immobilized via 3' A20/T20 hybridized to …
measure.name: Kd (pM)
Supply the numeric figure in pM, leaving out any unit text.

So for CGCACATCAGTTTAGCTAGTTCTGCCTTAATATGGTCGGTTAAGCGCA [CRP-Ugu4-3] , the logged Kd turned out to be 6.2
